- measurement description: melting temperature; fluorescence melt of hairpins on a sequencing array, two-state fit, raised by 9.35 °C to match UV melts
- condition: sodium 0.088 M
Could you please report measured Tm for the items listed next?

The examples below pair each entry with its known result.
Return value of Tm for input GCTCTGGGAAACTGGAGC ((((..(....)..)))) , no commentary. 45.9 °C

Return value of Tm for input GCGAAGCGAAAGCTTGGC ((.((((....)))).)) , no commentary. 52 °C

Return value of Tm for input GCACAACGAAAGTTTTGC (((.(((....))).))) , no commentary. 46.9 °C

Return value of Tm for input GGAAACGAAAGTTGATCC ((((((....)))..))) , no commentary. 29.3 °C

Return value of Tm for input GCCAGCGAAAGCTAGGC ((((((....))).))) , no commentary. 66 °C

Return value of Tm for input CGTAGGAAACTACG (((((....))))) , no commentary. 48.2 °C

Return value of Tm for input GTCCGCGAAAGCGGAGAC ((((((....)))..))) , no commentary. 56.8 °C

Return value of Tm for input GAGATTGGAAACAGTCTC ((((.((....)).)))) , no commentary. 40.8 °C

For the 4 sequences below, give their Tm values.
1. GATCATCTCAATGATC ((((((....))))))
2. GTAAAGCCGAAAGGCTAC (((..(((....))))))
3. GGAATCGAAAGATGTTCC ((((((....)))..)))
4. GATCGAGGAAACCCGATC (((((.(....).)))))

1: 48.9 °C; 2: 35.5 °C; 3: 22.8 °C; 4: 47.8 °C

For the 5 sequences below, give their Tm values.
1. GTGCTCGAAAGAGCGCAC ((((((....)))..)))
2. GGGAGCGAAAGCTACCC ((((((....))).)))
3. GGAACCCGAAAGGGTCC (((.(((....))))))
4. GCGTTGCGAAAGCAAGGC ((.((((....)))).))
5. GGCCGTGGAAACATGGCC ((((.((....)).))))

["57.1 °C", "62.8 °C", "59.7 °C", "68.5 °C", "61.8 °C"]

For the 7 sequences below, give their Tm values.
1. GTGCTCGGAAACGGGTAC ((.(.((....)).).))
2. GGTCTAGGAAACTAGATC (.(((((....))))).)
3. ATGCTGAAAAGCAT (((((....)))))
4. GATCGGATCCCGATC ((((((...))))))
5. GGAGTAGCGAAAGCTTCC (((..(((....))))))
6. GTAATGCGAAAGCAATAC (((.(((....))).)))
7. GATTCCGAAAGGAATATC ((((((....)))..)))

["41.9 °C", "40.3 °C", "50.8 °C", "56 °C", "38.2 °C", "44.6 °C", "46.6 °C"]

For the 2 sequences below, give their Tm values.
1. GGAATAGGAAACTATTTC (.(((((....))))).)
2. GGACCTGGAAACAGGCCC ((.((((....)))).))

1: 30.6 °C; 2: 52.7 °C

For the 3 sequences below, give their Tm values.
1. GAACACGAAAGTGATTTC ((((((....)))..)))
2. GGCCTTCGAAAGAAAGCC (((.(((....))).)))
3. GCCAAGCGAAAGCGGGGC (((..((....))..)))

26.9 °C
45.7 °C
68.3 °C

For the 5 sequences below, give their Tm values.
1. GATCCTTCAGAGGATC ((((((....))))))
2. GTAGCCGGAAACGGCTGC (.(((((....))))).)
3. GATACTGGAAACGGTATC (((((.(....).)))))
4. GAGTACGAAAGTAGTCTC ((((((....)))..)))
5. GACAATCCGAAAGGAGTC (((..(((....))))))

1. 51.6 °C
2. 60.9 °C
3. 42.7 °C
4. 49.2 °C
5. 32.7 °C

For the 2 sequences below, give their Tm values.
1. GTTAAACGAAAGTTCAAC (((.(((....))).)))
2. GATACACGAAAGTGCATC (((.(((....))).)))

1. 30.3 °C
2. 44.2 °C

For the 5 sequences below, give their Tm values.
1. GCCATGCGAAAGCACCGC ((..(((....)))..))
2. GATCCGTCTCGGATC ((((((...))))))
3. GAGGCGCGAAAGCGCTC (((.(((....))))))
4. GGGCGCGAAAGCGTGCCC ((((((....)))..)))
5. GCTCGCCGAAAGGCAAGC (((.(((....))).)))

1: 24.1 °C; 2: 59.7 °C; 3: 46.6 °C; 4: 64.2 °C; 5: 54.7 °C
